# subjectOfTest: program cell death protein 1 (PD-1) (UniProt Q15116 25-167, limits assumed)
# Sequence (Q15116 25-167 limits assumed): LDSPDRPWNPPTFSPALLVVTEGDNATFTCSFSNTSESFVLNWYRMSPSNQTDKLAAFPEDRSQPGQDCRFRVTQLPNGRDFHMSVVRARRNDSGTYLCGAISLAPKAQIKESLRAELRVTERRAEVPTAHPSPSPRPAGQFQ
# protocolText: SPR (Carterra LSA), IgG, monovalent affinity
# Lookup of reported Kd keyed by entry
# output: bare number, implied unit nM

Solved cases below.
PD1-7 (antibody, V domains shown, IgG in the assay) VH: QVQLVQSGAEVKKPGASVKVSCKASGYTFTHYGITWVRQAPGQGLEWMGWISAYSGSTNYAQKLQGRVTMTTDTSTSTAYMELRSLRSDDTAVYYCARDADYSIGSGYWGQGTLVTVSS VL: SYELMQPPSVSVSPGQTARITCSGDALPNQYAFWYQQKPGQAPVLVIYKDNERPSGIPERFSGSSSGTTVTLTISGVQAEDEADYYCQSADNSITYRVFGGGTKLTVL :: 10.5
PD1-12 (antibody, V domains shown, IgG in the assay) VH: QVQLVQSGAEVKKPGASVKVSCKASGYTFNTYGVSWVRQAPGQGLEWMGWISAYSGNTRYAQKLQGRVTMTTDTSTSTAYMELRSLRSDDTAVYYCARDFDYSSGSGYWGQGTLVTVSS VL: SYELMQPPSVSVSPGQTARITCSGDALPKQYAYWYQQKPGQAPVLVIYKDTERPSGIPERFSGSSSGTTVTLTISGVQAEDEADYYCQSADNSITYRVFGGGTKLTVL :: 53.5
PD1-27 (antibody, V domains shown, IgG in the assay) VH: QVQLVQSGAEVKKPGASVKVSCKASGYPFTNYGITWVRQAPGQGLEWMGWISAYNGNTNYAQKLQGRVTMTTDTSTSTAYMELRSLRSDDTAVYYCARDWDYSSGSGYWGQGTLVTVSS VL: SYELMQPPSVSVSPGQTARITCSGDILPKQYAYWYQQKPGQAPVLVIYKDNERASGIPERFSGSSSGTTVTLTISGVQAEDEADYYCQSADNSITYRVFGGGTKLTVL :: 88.6
PD1-38 (antibody, V domains shown) VH: EVQLVESGGGLVQPGRSLRLSCAASGFTFDDYALHWVRQAPGKDLEWVSGISWNGGSMGYADSVKGRFTISRDNAKNSLYLQMNSLRAEDTALYYCVREKGPGLTGSTADYYGLDAWGQGTMVTVSS :: 204
PD1-25 (antibody, V domains shown, IgG in the assay) VH: QVQLVQSGAEVKKPGASVKVSCKASGYSFTRYGISWVRQAPGQGLEWMGWISPYSGNTKYAQKLQGRVTMTTDTSTSTAYMELRSLRSDDTAVYYCARDADYGSGSGYWGQGTLVTVSS VL: SYELMQPPSVSVSPGQTARITCSGDALPDQYAYWYQQKPGQAPVLVIYKDYERPSGIPERFSGSSSGTTVTLTISGVQAEDEADYYCQSADNSITYRVFGGGTKLTVL :: 76

In: Item under review: PD1-8 (antibody, V domains shown, IgG in the assay) VH: QVQLVQSGAEVKKPGASVKVSCKASGYTFSHYGISWVRQAPGQGLEWMGWISPYSGNTKYAQKLQGRVTMTTDTSTSTAYMELRSLRSDDTAVYYCARDNDYSSGSGYWGQGTLVTVSS VL: SYELMQPPSVSVSPGQTARITCSGDELPKQYAYWYQQKPGQAPVLVIYKDNERASGIPERFSGSSSGTTVTLTISGVQAEDEADYYCQSADNSITYRVFGGGTKLTVL . Reported Kd?
Out: 78.1

In: Repeat for the following binder: PD1-20 (antibody, V domains shown) VH: EVQLVESGGGLVQPGRSLRLSCAASGFTFDDYAMHWVRQAPGKDLEWVSGISWNGGSMGYADSVKGRFTISRDNAKNSLYLQMNSLRAEDTALYYCVREKGPGLTGSTADYYGLDVWGQGTMVTVSS
Out: 109
